# Tested on: MS2 coat protein
# assay: apparent KD of MS2 coat protein; designed switch direction (-1 OFF switch, 1 ON switch): -1; higher = weaker reporter binding
# studyConditions: Eterna round: R95; input ligand: none
measurementLabel: apparent KD of MS2 coat protein (nM)
API: value field is a number in nM; no unit string.

UGUUGGCGAGGAUAUACAUGAGGAUCACCCAUGUGAGAGAAAAAAGUGAGGAAGAAAAGUAGAAGGCGCUGACC [salish99_ex3_r3_042] (puzzle: Exclusion 3) ... 55.1
AGUAGGUCUACCUUGGUGGAUCUGCAUUUUUGCAGGUGUACAUGAGGAUCACCCAUGUCCUCAUUUGCUCGUCUUAU [JL turnoff v2 99.30] (puzzle: Sensor v3, turn-off variant 2) ... 473
GCCGAUUAAGUCAGGAUAUACCUAUGGAUACAUAGGUAGAAGGGACAUGAGGAUCACCCAUGUGCCUCAACGGC [Fiskers BMX 4 - 18] (puzzle: Brourd's mod of Exclusion 4) ... 22.7

# get_value(readout= apparent KD of MS2 coat protein, system= MS2 coat protein) for AAUAACAAGCAGGUCCUAAACAUGAGGAUCACCCAUGUGCUCGUCUUGUAAAGUACUAUCACGAAAGUGAUAGUACA [Sensor 3, v1 - 60] (puzzle: Sensor v3, turn-off variant 1) 28.3

Missing value: apparent KD of MS2 coat protein, MS2 coat protein, entry GAGAAAUUAUAGGAUAUCGUAUGGAUAAUUUAACGAGAAGGAUGAACAUGAGGAUCACCCAUGUGGUAUCAUGG [JL-ex6-3.13] (puzzle: Exclusion 6) . Fill in? 331

====

// reported apparent KD of K4 kissing-loop reporter for each item listed
# Test system: K4 kissing-loop RNA reporter;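 further: bound reporter read as fluorescence of individual clusters on recovered sequencing chips by microscopy, with normalized cluster intensities fitted with a binding model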
# assay: apparent KD of K4 kissing-loop reporter; higher = weaker reporter binding
# studyConditions: Eterna round: R107; input ligand: arginine 13.2 mM
Lab book: enter the figure in nM, no units written.

Here are 5 sequences together with their reported answers.
UUUGCAAAGUCGGCCGCCACUCCGGGCCCUAUAAAUGGGCGCAGUGAUGUUGCGGCUAGGCCUCUGAGGACCGGGACUUUGUAAA [Inusleve] ... 52.1
GCCGUAGAUGGAAGGAGCGACUUCAGCGGAUAAACGUGACAAUUGGAGUGAUGUUCGCAAGGUCAGGUAGGUCGCCAUCUACGGC ... 211
GGAGGCCAGGCCUGCGAAGUGAUGUUUUGACGAGGACCGGUACGGCCGCCACUCGAAUGUUCUAUCAUCGUACGAACUUCUGCGU [theeternabot_exclusion_KL_Trp_A_26] ... 415
AUACGUUUAAGUGAUACCAGACAUGUGAGUGAUGUUUACAUAUAUAUUUAAUAUUUAGCUGUCCCUUGGCAGCACAGUUUAUUUA [JR_ExcTheophyB_Sub001] ... 374
AAAAUAAAGGAGUGAUGUUCCAUAUGUGAUACCAGCCACGAAAGUGGCCCUUGGCAGCACUGCCAAGUGGACGAAAACGUCCACA [#OpenEnded 5 #StaticStem #K4Early] ... 162

Read the next record carefully.
Entry GCGAAGAAGGUUGAUACCAGUCUUGCGUGUCAAGCGCCAGUGAUGUUGGGCCUGUAGAUCGACCCUUGGCAGCAACCUCGAAAUG [theeternabot_sameState_KL_Theo_B_28] : reported apparent KD of K4 kissing-loop reporter = ? 563
